assay: recombinant UMI read abundance after kanamycin selection (control-corrected) (log10(CPM+1)); higher = more efficient recombination; extreme values may be limits of the assay; sequences stand for … in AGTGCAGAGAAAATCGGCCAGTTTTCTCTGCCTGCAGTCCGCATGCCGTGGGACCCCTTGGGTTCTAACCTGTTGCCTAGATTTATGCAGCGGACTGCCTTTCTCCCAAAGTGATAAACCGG…AGGTTGGTTTCACT; site = the 11-nt donor
Readout type: recombinant UMI read abundance (log10)
When you answer, write just the number.

CCTTACGCATGGACCGGTTTTCCCGGTAATCCGTATTTGGC (site CCTTACGCTGC) = 0
CAGAATACATGGACCGGTTTTCCCGGTAATCCGTATTTGCA (site TAGAATACTTG) = 0.38
TCCATTTCATGGACCGGTTTTCCCGGTAATCCGTATTTGCC (site TCCAATTCTGG) = 0

Inquiry: // recombinant UMI read abundance (log10) lookup, key: CCGGAAGCATGGACCGGTTTTCCCGGTAATCCGTATTTGAC (site CCGGAAGCTGT)
Reply text: 0.161

Inquiry: Can you look up the measured recombinant UMI read abundance (log10) of GTAGGAACATGGACCGGTTTTCCCGGTAATCCGTATTTGAC (site GTAGGGACTGT) for me?
Reply text: 2.24

Inquiry: Please look up its recombinant UMI read abundance (log10): GGGAAGCCATGGACCGGTTTTCCCGGTAATCCGTATTTGGG (site GTGAAGCCTCC)
Reply text: 0.0194

###

assay: recombinant UMI read abundance after kanamycin selection (control-corrected) (log10(CPM+1)); higher = more efficient recombination; extreme values may be limits of the assay; sequences stand for … in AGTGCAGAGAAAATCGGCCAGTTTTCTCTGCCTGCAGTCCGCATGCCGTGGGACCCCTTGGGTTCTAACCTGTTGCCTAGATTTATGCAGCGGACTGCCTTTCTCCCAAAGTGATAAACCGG…AGGTTGGTTTCACT; site = the 11-nt donor
Tick YES if recombinant UMI read abundance (log10) is 0.01 or greater. Tick NO if recombinant UMI read abundance (log10) is less than 0.01.

Study these solved cases before continuing.
TGATCAACATGGACCGGTTTTCCCGGTAATCCGTATTTGCT (site TGATCAACTAG) = YES
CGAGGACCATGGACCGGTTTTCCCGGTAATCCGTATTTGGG (site CGAGGACCTGC) = NO
AGGAAGACATGGACCGGTTTTCCCGGTAATCCGTATTTGAA (site AGGAAGACTTT) = YES

Now look at this one.
Inquiry: Reported recombinant UMI read abundance (log10) at or above 0.01? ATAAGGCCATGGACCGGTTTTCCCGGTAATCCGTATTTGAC (site ATAACGCCTGT)
Reply text: YES

###

assay: recombinant UMI read abundance after kanamycin selection (control-corrected) (log10(CPM+1)); higher = more efficient recombination; extreme values may be limits of the assay; sequences stand for … in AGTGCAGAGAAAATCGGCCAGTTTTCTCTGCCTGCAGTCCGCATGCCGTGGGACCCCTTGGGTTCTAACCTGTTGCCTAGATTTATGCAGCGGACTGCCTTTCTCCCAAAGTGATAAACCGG…AGGTTGGTTTCACT; site = the 11-nt donor
Readout type: recombinant UMI read abundance (log10)
Lab note: record the figure alone, no unit after it.

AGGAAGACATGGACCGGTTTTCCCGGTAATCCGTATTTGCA (site TGAAAGACTTG) = 1.06
ATGAGGCCATGGACCGGTTTTCCCGGTAATCCGTATTTGAC (site ATCAGGCCTGT) = 0
GTAATCGCATGGACCGGTTTTCCCGGTAATCCGTATTTGCG (site GTAGTCGCTCG) = 0.00978
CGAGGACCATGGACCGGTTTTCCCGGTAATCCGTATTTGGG (site CGAGGAGCTCC) = 0.00291
CTATTTCCATGGACCGGTTTTCCCGGTAATCCGTATTTGGA (site CTATTTCCTTC) = 0

Inquiry: Consider the sequence shown here: ACGTGAGCATGGACCGGTTTTCCCGGTAATCCGTATTTGGA (site ACGTGAGCTTC) What is its recorded recombinant UMI read abundance (log10)?
Reply text: 1.78

Inquiry: Returns the measured recombinant UMI read abundance (log10) for the input sequence. Input: ACTTCTGCATGGACCGGTTTTCCCGGTAATCCGTATTTGCC (site ACTTCTGCTGG)
Reply text: 1.76

Inquiry: Any idea what recombinant UMI read abundance (log10) was measured for CAGTAGACATGGACCGGTTTTCCCGGTAATCCGTATTTGGG (site CAGTGGACTCC) ?
Reply text: 0.00992

Inquiry: Consider the sequence shown here: ATGCAGGCATGGACCGGTTTTCCCGGTAATCCGTATTTGGC (site ATGTAGGCTGC) What is its recorded recombinant UMI read abundance (log10)?
Reply text: 0.922

Inquiry: Look at this sequence and give its reported recombinant UMI read abundance (log10). AGCACTACATGGACCGGTTTTCCCGGTAATCCGTATTTGAC (site AGCACTACTGT)
Reply text: 1.85

Inquiry: Requested read-out: recombinant UMI read abundance (log10). Entry: TGAACACCATGGACCGGTTTTCCCGGTAATCCGTATTTGAC (site TGGACACCTGT)
Reply text: 0

Inquiry: // recombinant UMI read abundance (log10) lookup, key: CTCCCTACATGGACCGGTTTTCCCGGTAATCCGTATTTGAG (site CTCCCCACTCT)
Reply text: 0.0165

Inquiry: Return reported recombinant UMI read abundance (log10); argument: GCCACGTCATGGACCGGTTTTCCCGGTAATCCGTATTTGTA (site GCCACGCCTTA)
Reply text: 0.0201

Inquiry: Look up recombinant UMI read abundance (log10): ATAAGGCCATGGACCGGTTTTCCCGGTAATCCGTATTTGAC (site AAAAGGCCTGT)
Reply text: 0

Inquiry: I would be grateful if you could share the reported recombinant UMI read abundance (log10) for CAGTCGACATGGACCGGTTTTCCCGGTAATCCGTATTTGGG (site CATTCGACTCC) .
Reply text: 0.0119

Inquiry: For GTACACGCATGGACCGGTTTTCCCGGTAATCCGTATTTGCT (site GTACACGCTAG) , what is its reported recombinant UMI read abundance (log10)?
Reply text: 2.16

Inquiry: Look up recombinant UMI read abundance (log10): AGGAGGCCATGGACCGGTTTTCCCGGTAATCCGTATTTGAG (site AGGAGGCCTCT)
Reply text: 0.233

Inquiry: Using the record for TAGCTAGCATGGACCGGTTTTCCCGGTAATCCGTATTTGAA (site TAGCTACCTTT) , report its recombinant UMI read abundance (log10).
Reply text: 0.0202

Inquiry: Suppose we examine the sequence GGTCCAACATGGACCGGTTTTCCCGGTAATCCGTATTTGGA (site GGTCCAACTTC) ; what recombinant UMI read abundance (log10) value has been reported?
Reply text: 0.0919

Inquiry: Look up recombinant UMI read abundance (log10): TCTAGTTCATGGACCGGTTTTCCCGGTAATCCGTATTTGTG (site TCTAGTTCTCA)
Reply text: 0.0111

Inquiry: Entry under review: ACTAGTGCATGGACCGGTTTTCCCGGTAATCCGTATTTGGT (site ACTAGTGCTCC) . Reported recombinant UMI read abundance (log10)?
Reply text: 0.0239

###

assay: recombinant barcode read abundance after kanamycin selection (control-corrected) (log10(CPM+1)); higher = more efficient recombination; sequences stand for … in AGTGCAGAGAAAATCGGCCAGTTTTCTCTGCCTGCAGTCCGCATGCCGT…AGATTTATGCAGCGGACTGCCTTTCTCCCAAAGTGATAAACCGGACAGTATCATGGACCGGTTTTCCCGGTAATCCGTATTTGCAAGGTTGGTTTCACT; site = the 11-nt target
Readout type: recombinant barcode read abundance (log10)
// no unit string in output, number only

These recorded examples may help you get a feel for the data.
GGCACAGCTTGGGTTCTAACCTGTTGCCT (site GGCACGGCTAG) = 0.067
AGGTCTGCTTGGGTTCTAACCTGTTGCCT (site AGGTGTGCTAG) = 0.12
ATGCAAGCTTGGGTTCTAACCTGTTGCCT (site ATGCAACCTAG) = 0.0657
TGGTCCGCTTGGGTTCTAACCTGTTGCCT (site TGGTCCGCTAG) = 1.58

Note: attention shifts to another entry.
Inquiry: Need recombinant barcode read abundance (log10) of GTGAGGTCTTGGGTTCTAACCTGTTGCTT (site GTGAGGTCTAC) , thanks.
Reply text: 0.229

###

assay: recombinant UMI read abundance after kanamycin selection (control-corrected) (log10(CPM+1)); higher = more efficient recombination; extreme values may be limits of the assay; sequences stand for … in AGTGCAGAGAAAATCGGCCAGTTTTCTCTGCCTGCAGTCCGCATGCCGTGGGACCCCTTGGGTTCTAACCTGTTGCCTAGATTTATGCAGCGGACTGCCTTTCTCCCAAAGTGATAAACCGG…AGGTTGGTTTCACT; site = the 11-nt donor
Readout type: recombinant UMI read abundance (log10)

These recorded examples may help you get a feel for the data.
TAACTTACATGGACCGGTTTTCCCGGTAATCCGTATTTGGC (site TAACTTACTGC) = 1.32
CTGCTATCATGGACCGGTTTTCCCGGTAATCCGTATTTGAC (site CTAGTATCTGT) = 0
AATAGTACATGGACCGGTTTTCCCGGTAATCCGTATTTGCG (site AATAGTACTCG) = 0.989
TGTTCCCCATGGACCGGTTTTCCCGGTAATCCGTATTTGGA (site TGTTCCCCTTA) = 0.0182
AGGACTACATGGACCGGTTTTCCCGGTAATCCGTATTTGTC (site AGGACTACTGT) = 1.37
CCTAATGCATGGACCGGTTTTCCCGGTAATCCGTATTTGAT (site CCTAACGCTAT) = 0.00278
GAAGATTCATGGACCGGTTTTCCCGGTAATCCGTATTTGTG (site GAAGATTCTGA) = 0
GCTACTGCATGGACCGGTTTTCCCGGTAATCCGTATTTGGC (site GCTACTGCTGT) = 1.54

Inquiry: Endpoint output: recombinant UMI read abundance (log10) of TAGAATACATGGACCGGTTTTCCCGGTAATCCGTATTTGCT (site TAGAATACTTG) . Value?
Reply text: 0.00456

Inquiry: Given the sequence CCTAAACCATGGACCGGTTTTCCCGGTAATCCGTATTTGAT (site CCTAAATCTAT) , what is its reported recombinant UMI read abundance (log10)?
Reply text: 0

Inquiry: Bench note: what recombinant UMI read abundance (log10) did CTACTAGCATGGACCGGTTTTCCCGGTAATCCGTATTTGGA (site CTACTAACTTC) show?
Reply text: 1.43

Inquiry: // recombinant UMI read abundance (log10) lookup, key: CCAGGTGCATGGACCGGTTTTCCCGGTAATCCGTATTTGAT (site CCAGGCGCTAT)
Reply text: 0.436

Inquiry: GET /values?readout=recombinant UMI read abundance (log10)&item= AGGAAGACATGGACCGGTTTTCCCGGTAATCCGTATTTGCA (site AGGCAGACTTG)
Reply text: 1.49

Inquiry: So what does the record say about recombinant UMI read abundance (log10) for AAAGTAACATGGACCGGTTTTCCCGGTAATCCGTATTTGCA (site AAAGTAACTTG) ?
Reply text: 2.88

Inquiry: Quick one: recombinant UMI read abundance (log10) of CTTCCGACATGGACCGGTTTTCCCGGTAATCCGTATTTGGA (site CTTCCGACTTC) ?
Reply text: 0.0169

Inquiry: Fill in: recombinant UMI read abundance (log10) of ACGTACTCATGGACCGGTTTTCCCGGTAATCCGTATTTGGA (site ACGTACTCTTC) is ___
Reply text: 2.95

Inquiry: Return reported recombinant UMI read abundance (log10); argument: CGTGGAGCATGGACCGGTTTTCCCGGTAATCCGTATTTGTT (site CGTGGAACTAA)
Reply text: 1.66

Inquiry: If you can, please state the reported recombinant UMI read abundance (log10) value of ACATCTACATGGACCGGTTTTCCCGGTAATCCGTATTTGTA (site ACATCTACTGA) .
Reply text: 0
